Listed binders paired with reported Kd
Target: T1, S15-extra cellular domain (ECD) monomer (human, UniProt Q6ZMC9 20-263)
T1 construct: also called S15 monomer protein
T1 sequence: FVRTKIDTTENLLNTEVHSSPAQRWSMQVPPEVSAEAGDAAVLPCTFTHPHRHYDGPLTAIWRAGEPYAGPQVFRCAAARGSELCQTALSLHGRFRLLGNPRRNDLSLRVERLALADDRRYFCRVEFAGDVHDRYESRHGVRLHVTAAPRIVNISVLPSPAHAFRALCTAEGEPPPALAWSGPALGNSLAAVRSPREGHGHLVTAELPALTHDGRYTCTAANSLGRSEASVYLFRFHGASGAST
Test: BLI (Octet RED96), mAb on anti-human Fc sensors, S15-ECD monomer in solution, global fit
Return type: number; implicit unit nM.

Known results for binders:
1C12 (antibody, V domains shown, Mouse anti-human Siglec-15 mAb) VH: EVQLVESGGGLVKPGGSLKLSCAASGFSFSDYGMHWVRQAPEKGLEWVAYISSGSSILYYADIVKGRFTISRDNAKNTLFLQMTSLRSEDTAMYYCARDHYHGNGSDYWGQGTTLTVSS VL: DVLMTQTPLSLPVSLGDQASISCRSSQSIVHSNGNTYLEWYLQKPGQSPKLLIYKVSNRFSGVPDRFSGSGSGTDFTLKISRVEAEDLGVYYCFQGSHVPWTFGGGTKLEIK ... 4.01
105A (antibody, V domains shown, Mouse anti-human Siglec-15 mAb; also called NC105) VH: EVQLQQSGAELVRPGASVKLSCTASGFNIKDDYMHWVKQRPEQGLEWIGCIDPENGDIEYASRFQGKATMTADTSSNTAYLQLTSLTSADTAVYYCTTYVGFGYWGQGTLVTVSA VL: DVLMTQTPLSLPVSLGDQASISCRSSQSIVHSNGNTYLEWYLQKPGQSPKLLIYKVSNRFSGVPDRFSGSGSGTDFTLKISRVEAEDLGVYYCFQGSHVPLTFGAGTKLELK ... 1.39

Name the reported Kd value associated with the binder 8H8 (antibody, V domains shown, Mouse anti-human Siglec-15 mAb) VH: EVQLLETGGGLVQPGGSRGLSCEGSGFTFSGFWMSWVRQTPGKTLEWIGDINSDGSAINYAPSIKDRFTIFRDNDKNTLYLQMNNVRSEDTATYFCVRYDDYGYFDVWGTGTTVTVSS VL: QAVVTQESALTTSPGETVTLTCRSSSGAVTTGNFANWVQEKPDHLFTGLIGGTNNRAPGVPARFSGSLIGDKAALTITGAQTEDEAIYFCALWYSNHWVFGGGTKLTVL 1.3
